Source: patent US20250074980A1

- Measured on: T1, His-tagged CEACAM1 (human, UniProt P13688 35-428)
- T1 construct: 45 kDa SPR analyte; also called CEACAM1-HIS; CEACAM1 analyte
- T1 sequence: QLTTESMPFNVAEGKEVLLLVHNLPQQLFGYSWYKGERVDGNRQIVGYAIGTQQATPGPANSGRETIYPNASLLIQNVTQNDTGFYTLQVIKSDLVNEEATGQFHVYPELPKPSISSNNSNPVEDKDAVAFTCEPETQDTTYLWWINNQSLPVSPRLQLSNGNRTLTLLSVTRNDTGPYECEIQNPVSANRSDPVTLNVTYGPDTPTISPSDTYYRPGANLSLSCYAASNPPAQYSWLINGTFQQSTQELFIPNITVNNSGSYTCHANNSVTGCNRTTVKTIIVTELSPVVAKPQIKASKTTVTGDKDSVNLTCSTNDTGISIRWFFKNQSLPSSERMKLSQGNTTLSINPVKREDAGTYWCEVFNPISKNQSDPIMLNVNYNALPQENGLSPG
- Assay protocol: SPR multi-cycle, IgG captured
What koff was measured for each of the following?
Number only, in s⁻¹; omit the unit.

QUERY: Given the binder VH1/Vκ8 (antibody, IgG4, V domains shown, IgG4 (S241P), kappa) VH: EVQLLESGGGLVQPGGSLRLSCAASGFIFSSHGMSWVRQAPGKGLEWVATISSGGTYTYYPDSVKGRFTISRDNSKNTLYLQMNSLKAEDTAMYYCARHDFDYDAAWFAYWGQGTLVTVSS VL: EIVLTQSPATLSLSPGERATLSCRANSSVSYMYWYQQKPGQAPRPWIYLTSNRATGVPARFSGSGSGTDYTLTISSLEPEDFAVYYCQQWSSNPPTFGQGTKLEIK , write its reported koff.
RESULT: 0.0406

QUERY: Given the binder VH2/Vκ10 (antibody, IgG4, V domains shown, IgG4 (S241P), kappa) VH: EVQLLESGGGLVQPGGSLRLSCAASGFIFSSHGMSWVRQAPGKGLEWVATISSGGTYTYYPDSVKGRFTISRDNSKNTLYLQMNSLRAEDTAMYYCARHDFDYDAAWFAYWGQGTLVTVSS VL: EIVLTQSPATLSLSPGERATLSCRANSSVSYMYWYQQKPGQAPRPWIYLTSNRATGIPARFSGSGSGTDFTLTISSLEPEDFATYYCQQWSSNPPTFGQGTKLEIK , write its reported koff.
RESULT: 0.0246

QUERY: Given the binder VH1/Vκ10 (antibody, IgG4, V domains shown, IgG4 (S241P), kappa) VH: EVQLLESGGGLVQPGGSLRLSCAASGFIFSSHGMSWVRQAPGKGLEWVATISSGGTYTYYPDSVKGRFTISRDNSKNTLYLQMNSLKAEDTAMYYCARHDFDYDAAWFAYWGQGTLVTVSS VL: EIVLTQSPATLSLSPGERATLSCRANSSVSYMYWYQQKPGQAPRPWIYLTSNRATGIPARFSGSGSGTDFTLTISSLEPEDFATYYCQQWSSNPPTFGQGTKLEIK , write its reported koff.
RESULT: 0.0511
